Target: T1, DDE
T1 chain 1: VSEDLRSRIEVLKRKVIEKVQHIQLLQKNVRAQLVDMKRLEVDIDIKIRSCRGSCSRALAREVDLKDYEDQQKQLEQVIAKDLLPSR
T1 chain 2: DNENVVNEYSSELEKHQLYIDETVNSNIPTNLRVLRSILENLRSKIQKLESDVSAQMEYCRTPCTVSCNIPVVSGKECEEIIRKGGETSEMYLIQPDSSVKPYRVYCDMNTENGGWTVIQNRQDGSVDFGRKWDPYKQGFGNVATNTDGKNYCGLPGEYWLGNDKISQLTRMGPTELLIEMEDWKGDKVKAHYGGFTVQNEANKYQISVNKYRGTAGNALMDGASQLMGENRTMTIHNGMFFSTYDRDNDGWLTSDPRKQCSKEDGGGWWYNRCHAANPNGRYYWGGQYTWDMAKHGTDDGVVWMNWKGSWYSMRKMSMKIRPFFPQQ
T1 chain 3: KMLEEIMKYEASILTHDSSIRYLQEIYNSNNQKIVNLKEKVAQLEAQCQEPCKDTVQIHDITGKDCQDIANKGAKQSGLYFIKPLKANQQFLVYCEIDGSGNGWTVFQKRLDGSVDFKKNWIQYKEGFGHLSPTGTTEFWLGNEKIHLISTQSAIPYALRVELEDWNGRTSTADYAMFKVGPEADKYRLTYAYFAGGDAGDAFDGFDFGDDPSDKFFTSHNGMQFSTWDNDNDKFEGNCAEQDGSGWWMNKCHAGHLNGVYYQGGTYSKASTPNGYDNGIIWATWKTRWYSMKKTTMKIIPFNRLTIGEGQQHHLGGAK
T1 chain 4: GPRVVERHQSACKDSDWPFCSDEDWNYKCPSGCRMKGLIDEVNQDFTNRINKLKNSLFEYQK
T1 chain 5: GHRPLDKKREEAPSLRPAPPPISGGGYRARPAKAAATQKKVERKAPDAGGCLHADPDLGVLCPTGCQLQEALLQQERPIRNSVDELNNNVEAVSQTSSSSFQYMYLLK
T1 chain 6: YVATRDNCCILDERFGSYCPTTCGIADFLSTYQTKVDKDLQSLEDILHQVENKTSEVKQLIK
Assay: direct binding fluorescence polarization: CF5-labeled peptide titrated with DDE; n = 2
Bridge positions count the residues as written; N and C are the ends. CF5 = 5-carboxyfluorescein
testReadout: Kd (nM)

stdin: Reported Kd, binder Ac-SGSGSGSGWQPCPWESWTFCWDPGGGK(CF5)-NH2 (disulfide 12-20) [Seq024-CF5] : ____
stdout: 470

stdin: Item: Ac-GPPGWQPCPAESWTFCWDPGGGK(CF5)-NH2 (disulfide 8-16) [Seq034-CF5]
stdout: 310

stdin: Item: Ac-WQPCPWESWTFCWDPGGGK(CF5)-NH2 (disulfide 4-12, also called standard 5CF-labeled peptide) [Seq000-CF5]
stdout: 390
